Item-by-item account of GI50
System: M19-MEL
Test: NCI tumour cell line growth inhibition, 48 h
The source made the active and inactive calls. Rule as the data show it: active = GI50 up to about 1.1 µM and inactive = higher.

| compound | GI50 |
| --- | --- |
| BrC1(Br)C2/C=C\CCCCC21 (configuration not stated) | > 100 µM (inactive) |
| NC(=S)N/N=C(\CCC(=O)Nc1ccccc1[N+](=O)[O-])CC(=O)c1ccco1 | > 100 µM (inactive) |
| O=[N+]([O-])c1cccc(C2=NOC3C4CCC(C4)C23)c1 (configuration not stated) | > 100 µM (inactive) |
| COC1/C=C\C=C(/C)C(=O)NC2=CC(=O)C=C(C2=O)C(OC)C(C)CC(OC)C(OC)C(C)/C=C(/C)C1OC(N)=O (configuration not stated) | 2.2 µM (inactive) |
| COC(=O)C(=O)C(C(C)=O)C(=O)NCc1ccccc1 (configuration not stated) | > 100 µM (inactive) |

// GI50 lookup, compound = COc1ccc(-c2ccc(CC(=O)O)cc2)cc1OC , result: > 100 µM (inactive)

// GI50 lookup, compound = Cc1c(C(=O)/C=C/c2ccco2)[n+]([O-])c2ccccc2[n+]1[O-] , result: > 100 µM (inactive)

// GI50 lookup, compound = CC1=NN(c2ccccc2)C(=O)C1=C1SCCS1 , result: 41.8 µM (inactive)

// GI50 lookup, compound = COc1ccccc1C(O)(c1ccccc1)C(O)(c1ccccc1)c1ccccc1OC (configuration not stated) , result: > 100 µM (inactive)

// GI50 lookup, compound = O=[N+]([O-])c1ccccc1S(=O)(=O)c1ccccc1[N+](=O)[O-] , result: > 100 µM (inactive)

// GI50 lookup, compound = CCCc1cc(-c2ccc(-c3cc(CCC)c(C=O)[nH]3)s2)[nH]c1C=O , result: 4.53 µM (inactive)

// GI50 lookup, compound = Cc1ccc(N2C(=O)C(=CN)C(=O)N(c3ccc(C)cc3)C2=O)cc1 , result: > 100 µM (inactive)

====

Tested on: SN12C
Assay: NCI tumour cell line growth inhibition, 48 h
Active and inactive are the calls of the source. Rule as the data show it: active = GI50 up to about 1.1 µM and inactive = higher.
Mark one answer only. Choices: true (active), false (inactive)

Please review the entries below; each comes with its answer.
| compound | system tested | class assignment |
| --- | --- | --- |
| O=c1[nH]nc(Cc2ccccc2)n1/N=C/c1ccc([N+](=O)[O-])cc1 | SN12C | false |
| NC1=NN(c2ccccc2)C(=O)C1C(=O)C(=O)Nc1ccc(Cl)cc1 (stereo not drawn) | SN12C | false |
| O=C(CC(=O)C1=CNc2ccccc2S1)C(=O)Nc1ccc(Cl)cc1 | SN12C | false |
| N#CC1(C#N)C(C#N)(C#N)C12CCCCCC2 | SN12C | false |

Exercise: Which outcome was assigned to COc1ccc2c(c1)CCc1c-2n(CCN(C)C)c2ccc(OC)cc12 in this test?
Key: false

Exercise: Which outcome was assigned to CCCN1CC=CCC1 in this test?
Key: false

Exercise: Which outcome was assigned to CC1(C)Oc2ccc3c(=O)cc(-c4ccc(F)cc4)oc3c2C1C(=O)O (stereo not drawn) in this test?
Key: false

Exercise: Which outcome was assigned to CN(c1ccccc1)c1c(Cl)c(=O)oc2c1ccc1occc12 in this test?
Key: false

Exercise: Which outcome was assigned to CCC1CN2CCC3(c4ccccc4)CC(C(=O)OC)=CC1C23 (stereo not drawn) in this test?
Key: false

Exercise: Which outcome was assigned to CN(C)CCNC(=O)c1cccc2cc3c(Cl)cccc3nc12 in this test?
Key: true

Exercise: Which outcome was assigned to COC(=O)/C=C/c1cnc2c(c1)oc(=O)n2CCc1ccccn1 in this test?
Key: false

Exercise: Which outcome was assigned to CC1(c2ccc(F)cc2)C2C(=O)NC(=O)C1C(=O)NC2=O (stereo not drawn) in this test?
Key: false

Exercise: Which outcome was assigned to Cc1cnc2nc(-c3ccc(Cl)cc3)cc(O)c2c1 in this test?
Key: false

====

Item-by-item account of GI50
Tested on: 786-0
Test: NCI tumour cell line growth inhibition, 48 h
Calls of active or inactive are those of the source. Cut-off read from the data, not from the text of the source: active = GI50 up to about 1.1 µM and inactive = higher.

Below, each entry is followed by its recorded GI50 result.
| compound | system tested | GI50 |
| --- | --- | --- |
| CCCN(CCC)C(=S)N/N=C/c1cccc(C)n1 | 786-0 | 0.0237 µM (active) |
| Oc1ccccc1-c1n[nH]c(-c2ccccc2O)n1 | 786-0 | 4.18 µM (inactive) |
| CCCNC(=O)Nc1c([N+](=O)[O-])cc(C(F)(F)F)cc1[N+](=O)[O-] | 786-0 | > 100 µM (inactive) |
| O=C(O)c1ccc(C(c2c(O)oc3ccccc3c2=O)c2c(O)oc3ccccc3c2=O)cc1 | 786-0 | > 100 µM (inactive) |
| COc1cc([C@@H]2c3cc4c(cc3[C@@H](OC(=O)c3cccc(N)c3)C3COC(=O)[C@@H]32)OCO4)cc(OC)c1O (stereo partly specified) | 786-0 | 2.49 µM (inactive) |

For the next question, use this compound.
// GI50 lookup, compound = C=C(CC[C@@H](C)[C@H]1CC[C@@]2(C)C3=C(CC[C@]12C)[C@@]1(C)CC[C@H](O)[C@@H](C)C1CC3)C(C)C (stereo partly specified) , result: 0.984 µM (active)

====

System: HOP-92
Experiment: NCI tumour cell line growth inhibition, 48 h
The source made the active and inactive calls. Cut-off read from the data, not from the text of the source: active = GI50 up to about 1.1 µM and inactive = higher.
attribute measured: GI50

Below, each entry is followed by its recorded GI50 result.
| molecule | attribute measured | measured result |
| --- | --- | --- |
| CC1CC(C)C(O)C(C2CC(CC(=O)NC3CCCCC3)CC(=O)O2)C1 (stereo not given) | GI50 | > 100 µM (inactive) |
| COC(=O)Nc1nc2ccc(S(=O)(=O)SC)cc2[nH]1 | GI50 | 6.35 µM (inactive) |

// GI50 lookup, molecule = S=C1Cc2cc3ccccc3nc2-c2ccccc2N1 , result: 8.87 µM (inactive)

// GI50 lookup, molecule = COC(=O)c1nc(-c2ccc3c(n2)C(=O)C(=N)C(OC)=C3O)c(N)c(-c2ccc(OC)c(OC)c2O)c1C , result: 2.16 µM (inactive)

// GI50 lookup, molecule = CC1(C)C(C(=O)OC(C#N)c2cccc(OCC(=O)OCc3ccccc3)c2)C1(C)C (stereo not given) , result: > 100 µM (inactive)

====

System: U-251
Assay: NCI tumour cell line growth inhibition, 48 h
Calls of active or inactive are those of the source. Rule as the data show it: active = GI50 up to about 1.1 µM and inactive = higher. Residues, ends and D or L forms follow the SMILES beside them. *: point of attachment. OBn = c1ccc(CO*)cc1
Item-by-item account of GI50

| molecule | measured result |
| --- | --- |
| CC1(C)C(OC(=O)c2ccccc2)C[C@]23CCC[C@](C)(C[C@@H](O)C12)C3 (stereo partly drawn) | > 10 µM (inactive) |
| CC(=C(C(N)=O)C(N)=O)C1C=C(c2cccs2)CC(c2ccc(Cl)cc2)=C1O (stereo not drawn) | 35.6 µM (inactive) |
| C#CCCCC(=C)C[C@H](OCc1ccccc1)[C@H]1OC(=O)[C@@H]1C | > 100 µM (inactive) |
| NC1=NN(c2ccccc2)C(=O)C1C(=O)C(=O)Nc1ccc(Cl)cc1 (stereo not drawn) | > 100 µM (inactive) |
| Cc1ccc(N2C(=O)C(=CN)C(=O)N(c3ccc(C)cc3)C2=O)cc1 | 10 µM (inactive) |
| ClC1CCC2OOC1O2 (stereo not drawn) | > 100 µM (inactive) |

// GI50 lookup, molecule = COc1cc([C@@H]2c3cc4c(cc3[C@@H](OC(=O)c3cccc(N)c3)C3COC(=O)[C@@H]32)OCO4)cc(OC)c1O (stereo partly drawn) , result: 5.85 µM (inactive)

// GI50 lookup, molecule = Cc1cn2c(=O)c3ccccc3nc2s1 , result: > 100 µM (inactive)

// GI50 lookup, molecule = NC(CCC(=O)OCc1ccccc1)C(=O)NC(CCC(=O)OCc1ccccc1)C(=O)O (stereo not drawn) (H-Glu(OBn)-Glu(OBn)-OH; configuration not given here) , result: > 100 µM (inactive)

// GI50 lookup, molecule = CCOC(=O)C1(Cc2ccc3ccccc3c2)CCCCCN1 (stereo not drawn) , result: 47 µM (inactive)

// GI50 lookup, molecule = CC1(C)CC(=O)C2=C(C1)c1c(ccc3ccccc13)NC2c1cn(Cc2ccc(Cl)cc2)c2ccccc12 (stereo not drawn) , result: 56.8 µM (inactive)

// GI50 lookup, molecule = COc1ccc(-n2c(=O)n(C)c(=O)n2-c2c(C)c(C)c(C)c(C)c2C)cc1 , result: > 100 µM (inactive)

// GI50 lookup, molecule = CCCc1cc(-c2ccc(-c3cc(CCC)c(C=O)[nH]3)s2)[nH]c1C=O , result: 61.1 µM (inactive)

// GI50 lookup, molecule = CC(=O)O[C@]1(C(C)=O)CC[C@H]2[C@@H]3C[C@H](C)C4=CC(=O)C=C[C@]4(C)[C@@]3(F)[C@@H](O)C[C@@]21C [FLUOROMETHOLONE ACETATE] , result: 87.7 µM (inactive)
